QUANTITY KIND: melting point (°C)
Express your answer in °C, writing the number without its unit.

COMPOUND: COc1nc2ccc(F)cc2cc1C(c1ccc(S(C)(=O)=O)cc1)C1(O)CCNC(c2ccc(F)cc2C)C1 (centres unmarked) [Compound 419]
melting point (°C): 154

I am curious: what melting point value has been reported for CCCN(C)CC1CC(O)(C(c2ccc(Cl)cc2)c2cc3cc(Cl)ccc3nc2OC)CCN1 (centres unmarked) [Compound 63] ?
157

# query: melting point of entry COc1nc2ccc(S(C)(=O)=O)cc2cc1C(c1ccc(Cl)cc1)C1(O)CCNCC1(C)C (centres unmarked) [Compound 397]
180

----------
Where a name gives a salt, the structure may show the parent alone.
Listed here: items and their measured melting point.

// worked examples, melting point included
MOLECULE: COc1nc2ccc(Cl)cc2cc1C(c1ccc(Cl)cc1)C1(O)CCNCC1Cc1ccccn1 (stereo not shown) [Compound 433]
melting point: 114 °C
--
MOLECULE: O=c1[nH]c2ccc(Br)cc2cc1C(c1ccc(Cl)cc1)C1(O)CCNCC1Cc1cccc(F)c1 (stereo not shown) (as salt: hydrochloride) [Compound 49]
melting point: 183 °C
--
MOLECULE: COc1nc2ccc(SC)cc2cc1C(c1cccc(Cl)c1)C1(O)CCNC(Cc2ccc(F)cc2F)C1 (stereo not shown) (as salt: trifluoroacetate) [Compound 50]
melting point: 208 °C

Which value of melting point has been reported for COc1nc2ccc(S(C)(=O)=O)cc2cc1C(c1ccc(Cl)cc1)C1(O)CCNC(c2ccc3ccccc3c2)C1 (stereo not shown) [Compound 463] in the records?
160 °C

Can you share its melting point? I mean this molecule: COc1nc2ccc(S(C)(=O)=O)cc2cc1C(c1cccc(Cl)c1)C1(O)CCNC(c2ccc(F)cc2C)C1 (stereo not shown) [Compound 46]
145 °C

Returns the measured melting point for the input molecule. Input: COc1nc2ccc(SC)cc2cc1C(c1ccc(Cl)cc1)C1(O)CCNC(c2ccc(F)cc2C)C1 (stereo not shown) [Compound 273]
204 °C

Requested read-out: melting point. Entry: CSc1ccc2[nH]c(=O)c(C(c3cccc(Cl)c3)C3(O)CCNC(c4ccc(F)cc4C)C3)cc2c1 (stereo not shown) (as salt: hydrochloride) [Compound 160]
> 250 °C

----------
Below, each of the compounds is paired with its reported melting point value.
Where a name gives a salt, the structure may show the parent alone.
Dear colleague, please return just the value in °C, with no unit written.

The following compounds have reported results that may help.
COMPOUND: COc1nc2ccc(Br)cc2cc1C(c1ccc(S(C)(=O)=O)cc1)C1(O)CCNC(Cc2ccccc2)C1 (stereo not shown) [Compound 102]
melting point / °C: 145
//
COMPOUND: COc1nc2ccc(Cl)cc2cc1C(c1ccc(Cl)cc1)C1(O)CCNC(c2ccc(F)cc2C)C1 (single isomer, unassigned) [Compound 3]
melting point / °C: 146
//
COMPOUND: COc1nc2ccc(S(C)(=O)=O)cc2cc1C(c1ccc(Cl)cc1)C1(O)CCNCC1Cc1cccc[n+]1[O-] (stereo not shown) [Compound 66]
melting point / °C: 184

Requested read-out: melting point. Entry: COc1nc2ccc(Br)cc2cc1C(c1cccc(Cl)c1)C1(O)CCNC(Cc2ccccc2)C1 (stereo not shown) [Compound 34]
152

Can you share its melting point? I mean this compound: CSc1ccc2[nH]c(=O)c(C(c3cccc(Cl)c3)C3(O)CCNC(c4ccc(F)cc4C)C3)cc2c1 (stereo not shown) [Compound 174]
171

Which value of melting point has been reported for COc1nc2ccc(F)cc2cc1C(c1ccc(Cl)cc1)C1(O)CCNC(Cc2ccccc2)C1 (stereo not shown) (as salt: fumarate) [Compound 55] in the records?
120

Look up melting point: COc1nc2ccc(Br)cc2cc1C(c1ccc(Cl)cc1)C1(O)CCNC(c2ccc(F)cc2C)C1 (stereo not shown) [Compound 104]
160

----------
Entries and their melting point
Counter-ions that a name gives are not always drawn.
Answer in °C, number only, no unit symbol.

COMPOUND: COc1nc2ccc(S(C)(=O)=O)cc2cc1C(c1ccc(Cl)cc1)C1(O)CCNC(c2ccc3ccccc3c2)C1 (stereo not shown) [Compound 465]
QUANTITY KIND: melting point
REPORTED RESULT: 168

Which melting point value belongs to COc1nc2ccccc2cc1C(c1ccccc1)C1(O)CCNC(c2ccccc2)C1 (stereo not shown) (as salt: fumarate) [Compound 415] ?
160

----------
Recorded melting point for the following compounds
Where a name gives a salt, the structure may show the parent alone.
Report the figure in °C without appending any unit label.

What does the record list as melting point for C=CC1CC(O)(C(c2ccc(Cl)cc2)c2cc3cc(Br)ccc3nc2OC)CCN1 (stereo not shown) [Compound 372] ?
194

For the compound COc1nc2ccc(Cl)cc2cc1C(c1ccc(Cl)cc1)C1(O)CCNC(c2ccc3ccccc3c2)C1 (stereo not shown) (as salt: fumarate) [Compound 432] , what melting point is on record?
167

// lookup melting point for CS(=O)(=O)c1ccc2[nH]c(=O)c(C(c3ccc(Cl)cc3)C3(O)CCNC(Cc4ccc(F)c(F)c4)C3)cc2c1 (stereo not shown) (as salt: fumarate) [Compound 214]
213

----------
Structures can show the parent of a compound that is named as a salt.
Param threshold (200 °C) applies to melting point; output true (1) when value >= threshold, false (0) when value < threshold.

COMPOUND: CS(=O)(=O)c1ccc2[nH]c(=O)c(C(c3ccccc3)C3(O)CCNC(Cc4ccccc4)C3)cc2c1 (stereo not shown) [Compound 154]
DISCRETE LABEL: true (1)

COMPOUND: CS(=O)(=O)c1ccc2[nH]c(=O)c(C(c3ccc(Cl)cc3)C3(O)CCNC(Cc4ccccc4)C3)cc2c1 (stereo not shown) (as salt: fumarate)
DISCRETE LABEL: true (1)

COMPOUND: COc1nc2ccc(Cl)cc2cc1C(c1ccc(Cl)cc1)C1(O)CCNC(c2ccc3ccccc3c2)C1 (stereo not shown) (as salt: fumarate) [Compound 431]
DISCRETE LABEL: false (0)

COMPOUND: COc1nc2ccc(Br)cc2cc1C(c1ccccc1)C1(O)CCNC(c2ccc(F)cc2C)C1 (stereo not shown) [Compound 194]
DISCRETE LABEL: false (0)

COMPOUND: COc1nc2ccc(S(C)(=O)=O)cc2cc1C(c1ccccc1)C1(O)CCNC(c2ccc(F)cc2C)C1 (stereo not shown) [Compound 185]
DISCRETE LABEL: false (0)

Could you tell me if the measured melting point of COc1nc2ccc(Br)cc2cc1C(c1ccc(Cl)cc1)C1(O)CCNC(C)C1 (stereo not shown) [Compound 123] reaches 200 °C or more?
true (1)

Entry Cc1cc(F)ccc1C1CC(O)(C(c2ccccc2)c2cc3cc(-c4cccnc4)ccc3[nH]c2=O)CCN1 (stereo not shown) (as salt: hydrochloride) : is its melting point no less than 200 °C?
true (1)

----------
Structures can show the parent of a compound that is named as a salt.
Cut-off 200 °C on melting point: below means 1, at or above means 0.

Quick check: does COc1nc2ccc(SC)cc2cc1C(c1ccc(Cl)cc1)C1(O)CCNC(Cc2ccccc2)C1 (stereo not shown) (as salt: fumarate) [Compound 90] have melting point under 200 °C?
1

----------
QUANTITY KIND: melting point (°C)
Lab book: enter the figure in °C, no units written.

So what does the record say about melting point for COc1nc2ccc(F)cc2cc1C(c1ccc(S(C)(=O)=O)cc1)C1(O)CCNC(c2ccc(F)cc2C)C1 (centres unmarked) [Compound 417] ?
150

So what's the measured melting point for this one? COc1nc2ccc(Br)cc2cc1C(c1ccc(Cl)cc1)C1(O)CCNC(CC2CCCCC2)C1 (centres unmarked) [Compound 259]
168

Which melting point value belongs to COc1nc2ccc(Br)cc2cc1C(c1ccc(Cl)cc1)C1(O)CCNC(Cc2ccc(F)c(F)c2)C1 (centres unmarked) [Compound 39] ?
106

----------
QUANTITY KIND: melting point (°C)
The response must be a number in °C with no trailing unit.

Answered examples (5):
MOLECULE: COc1nc2ccc(S(C)(=O)=O)cc2cc1C(c1cccc(Cl)c1)C1(O)CCNC(c2ccc(F)cc2C)C1 (stereo not shown) [Compound 172]
MEASUREMENT UNITS: °C
REPORTED RESULT: 170
--
MOLECULE: COc1nc2ccc(S(=O)(=O)C(C)C)cc2cc1C(c1ccc(Cl)cc1)C1(O)CCNC(Cc2ccccc2)C1 (stereo not shown) [Compound 387]
MEASUREMENT UNITS: °C
REPORTED RESULT: 204
--
MOLECULE: COc1nc2ccc(SC)cc2cc1C(c1ccc(Cl)cc1)C1(O)CCNC(Cc2ccc(F)cc2)C1 (stereo not shown) [Compound 261]
MEASUREMENT UNITS: °C
REPORTED RESULT: 122
--
MOLECULE: CS(=O)(=O)c1ccc2[nH]c(=O)c(C(c3ccccc3)C3(O)CCNC(Cc4ccccc4)C3)cc2c1 (stereo not shown) [Compound 153]
MEASUREMENT UNITS: °C
REPORTED RESULT: 183
--
MOLECULE: COc1nc2ccc(CN)cc2cc1[C@@H](c1ccccc1)C1(O)CCNC(Cc2ccccc2)C1 (stereo partly shown)
MEASUREMENT UNITS: °C
REPORTED RESULT: 100

# input molecule: COc1nc2ccc(S(C)(=O)=O)cc2cc1C(c1ccc(Cl)cc1)C1(O)CCNC(c2ccc3ccccc3c2)C1 (stereo not shown) [Compound 462] ; wanted: its melting point
192

Entry COc1nc2ccc(SC)cc2cc1C(c1ccccc1)C1(O)CCNC(c2ccc(F)cc2C)C1 (stereo not shown) [Compound 195] has what melting point?
153

Origin of measurements: patent US9617244B2
